Molecular target: Bromodomain-containing protein 4 (Homo sapiens)
Experiment: Displacement of SGRG-K(Ac)-GG-K(Ac)-GLG-K(Ac)-GGA-K(Ac)-RHRKVGG-K(Biotin) from Europium chelated human BRD4 bromodomain 2 (342 to 460 residues) measured after 2 hrs by TR-FRET assay
Listed here are compounds together with their documented IC50.
QUANTITY_MEASURED: IC50 (µM)

[[record]]
compound = "CSCC(=O)NCCCCCC(=O)N(C)CCCN1c2ccccc2CCc2ccccc21"
unit_string = "µM"
measurement = 231

[[record]]
compound = "CC1COc2c(N3CCN(C)CC3)c(F)cc3c(=O)c(C(=O)NCCCCCC(=O)N(C)CCCN4c5ccccc5CCc5ccccc54)cn1c23 (stereo unspecified)"
unit_string = "µM"
measurement = 30

[[record]]
compound = "CNC(=O)CSC"
unit_string = "µM"
measurement = 1160

[[record]]
compound = "CNC(=O)c1cn2c3c(c(N4CCN(C)CC4)c(F)cc3c1=O)OCC2C (stereo unspecified)"
unit_string = "µM"
measurement = 321

[[record]]
compound = "CC1COc2c(N3CCN(C)CC3)c(F)cc3c(=O)c(C(=O)N(C)CCCN4c5ccccc5CCc5ccccc54)cn1c23 (stereo unspecified)"
unit_string = "µM"
measurement = 41

[[record]]
compound = "CSCC(=O)N(C)CCCN1c2ccccc2CCc2ccccc21"
unit_string = "µM"
measurement = 153


====

Target: NAD-dependent protein deacetylase sirtuin-2 (Homo sapiens)
Assay: Inhibition of human recombinant SIRT2 assessed as inhibition of substrate deacetylation using Gln-Pro-Lys-Lys- (epsilon acetyl) AMC peptide as substrate in presence of NAD+ measured by fluorescence based analysis
pKi: −log10 of the molar value.
Listed here are compounds together with their documented pKi.
QUANTITY_MEASURED: pKi

[[record]]
compound = "CC1COc2c(N3CCN(C)CC3)c(F)cc3c(=O)c(C(=O)NCCCCCCNC(=O)CCc4nc(-c5ccncc5)no4)cn1c23 (stereo not given)"
quantity_measured = "pKi"
measurement = 4.51

[[record]]
compound = "COc1cc(CC(=O)NCCOCCOCCNC(=O)c2cn3c4c(c(N5CCN(C)CC5)c(F)cc4c2=O)OCC3C)cc(OC)c1OC (stereo not given)"
quantity_measured = "pKi"
measurement = 5.05

[[record]]
compound = "COc1cc(CC(=O)NCCOCCOCCOCCNC(=O)c2cccc(-c3cccnc3)c2)cc(OC)c1OC"
quantity_measured = "pKi"
measurement = 4.57

[[record]]
compound = "CC1COc2c(N3CCN(C)CC3)c(F)cc3c(=O)c(C(=O)NCCOCCOCCOCCNC(=O)c4cn5c6c(c(N7CCN(C)CC7)c(F)cc6c4=O)OCC5C)cn1c23 (stereo not given)"
quantity_measured = "pKi"
measurement = 4.04

[[record]]
compound = "CC1COc2c(N3CCN(C)CC3)c(F)cc3c(=O)c(C(=O)NCCCNC(=O)c4cn5c6c(c(N7CCN(C)CC7)c(F)cc6c4=O)OCC5C)cn1c23 (stereo not given)"
quantity_measured = "pKi"
measurement = 4.06

[[record]]
compound = "CC1COc2c(N3CCN(C)CC3)c(F)cc3c(=O)c(C(=O)NCc4ccc(CNC(=O)c5cn6c7c(c(N8CCN(C)CC8)c(F)cc7c5=O)OCC6C)cc4)cn1c23 (stereo not given)"
quantity_measured = "pKi"
measurement = 4.27

[[record]]
compound = "COc1cc(CC(=O)NCCCNC(=O)c2cn3c4c(c(N5CCN(C)CC5)c(F)cc4c2=O)OCC3C)cc(OC)c1OC (stereo not given)"
quantity_measured = "pKi"
measurement = 4.96

[[record]]
compound = "COc1cc(CC(=O)NCCOCCOCCNC(=O)c2cccc(-c3cccnc3)c2)cc(OC)c1OC"
quantity_measured = "pKi"
measurement = 4.55

[[record]]
compound = "O=C(NCCOCCOCCNC(=O)c1cccc(-c2cccnc2)c1)c1cccc(-c2cccnc2)c1"
quantity_measured = "pKi"
measurement = 4.54

[[record]]
compound = "CC1COc2c(N3CCN(C)CC3)c(F)cc3c(=O)c(C(=O)NCCCNC(=O)CCc4nc(-c5ccncc5)no4)cn1c23 (stereo not given)"
quantity_measured = "pKi"
measurement = 4.82

[[record]]
compound = "CC1COc2c(N3CCN(C)CC3)c(F)cc3c(=O)c(C(=O)NCCOCCOCCNC(=O)c4cn5c6c(c(N7CCN(C)CC7)c(F)cc6c4=O)OCC5C)cn1c23 (stereo not given)"
quantity_measured = "pKi"
measurement = 3.95

[[record]]
compound = "O=C1CC(C(=O)NCCCCCCNCC(=O)C2CC3CCC2C3)c2ccccc21 (stereo not given)"
quantity_measured = "pKi"
measurement = 3.57

[[record]]
compound = "CC1COc2c(N3CCN(C)CC3)c(F)cc3c(=O)c(C(=O)NCc4ccc(CNC(=O)CCc5nc(-c6ccncc6)no5)cc4)cn1c23 (stereo not given)"
quantity_measured = "pKi"
measurement = 4.25

[[record]]
compound = "O=C(NCCCCCCNC(=O)c1cccc(-c2cccnc2)c1)c1cccc(-c2cccnc2)c1"
quantity_measured = "pKi"
measurement = 4.92

[[record]]
compound = "CC1COc2c(N3CCN(C)CC3)c(F)cc3c(=O)c(C(=O)NCCOCCOCCOCCNC(=O)CCc4nc(-c5ccncc5)no4)cn1c23 (stereo not given)"
quantity_measured = "pKi"
measurement = 5.15


====

Biological target: NAD-dependent protein deacylase sirtuin-5, mitochondrial (Homo sapiens, UniProt Q9NXA8)
Sequence (Q9NXA8 whole entry): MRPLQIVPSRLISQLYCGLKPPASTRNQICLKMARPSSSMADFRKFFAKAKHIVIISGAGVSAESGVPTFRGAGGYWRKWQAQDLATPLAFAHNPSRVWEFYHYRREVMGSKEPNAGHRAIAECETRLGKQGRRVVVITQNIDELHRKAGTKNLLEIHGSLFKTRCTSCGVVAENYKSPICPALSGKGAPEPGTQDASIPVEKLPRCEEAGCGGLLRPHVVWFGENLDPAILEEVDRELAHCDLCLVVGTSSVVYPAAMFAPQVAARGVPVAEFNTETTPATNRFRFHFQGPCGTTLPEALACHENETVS
Test: Inhibition of human recombinant SIRT5 assessed as inhibition of substrate desuccinylation using Fluor de Lys-Succinyl green peptide as substrate in presence of NAD+ measured by fluorometric assay
QUANTITY_MEASURED: Ki (µM)

[[record]]
line_notation = "CN(CCCN1c2ccccc2CCc2ccccc21)C(=O)CCCCCNC(=O)C[C@@H](Cc1ccccc1)NC(=O)OC(C)(C)C"
quantity_measured = "Ki"
measurement = 122


====

Biological target: NAD-dependent protein deacetylase sirtuin-1 (Homo sapiens, UniProt Q96EB6)
Sequence (Q96EB6 whole entry): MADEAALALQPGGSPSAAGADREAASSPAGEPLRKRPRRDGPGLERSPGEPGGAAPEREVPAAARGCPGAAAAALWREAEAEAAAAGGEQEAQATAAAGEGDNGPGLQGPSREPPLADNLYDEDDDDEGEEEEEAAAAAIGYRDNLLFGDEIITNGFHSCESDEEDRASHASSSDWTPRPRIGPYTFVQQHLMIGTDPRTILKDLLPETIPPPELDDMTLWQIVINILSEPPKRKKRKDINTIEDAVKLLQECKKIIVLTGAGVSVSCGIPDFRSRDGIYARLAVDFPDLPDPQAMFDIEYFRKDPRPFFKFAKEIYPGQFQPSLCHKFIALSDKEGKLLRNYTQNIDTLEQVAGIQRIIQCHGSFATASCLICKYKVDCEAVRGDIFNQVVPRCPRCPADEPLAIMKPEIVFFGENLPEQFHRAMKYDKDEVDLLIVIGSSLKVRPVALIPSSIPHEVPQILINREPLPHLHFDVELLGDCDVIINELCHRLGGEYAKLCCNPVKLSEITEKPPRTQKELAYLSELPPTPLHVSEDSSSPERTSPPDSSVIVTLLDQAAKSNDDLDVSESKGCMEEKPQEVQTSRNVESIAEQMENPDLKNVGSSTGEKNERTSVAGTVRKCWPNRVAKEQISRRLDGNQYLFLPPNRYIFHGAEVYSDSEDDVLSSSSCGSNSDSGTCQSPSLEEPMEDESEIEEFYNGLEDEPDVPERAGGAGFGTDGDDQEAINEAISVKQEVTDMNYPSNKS
Assay: Binding affinity to chip-immobilized recombinant human SIRT1 measured after 300 secs by surface plasmon resonance method
QUANTITY_MEASURED: Kd

[[record]]
line_notation = "O=C(NCCOCCOCCOCCNC(=O)c1cccc(-c2cccnc2)c1)c1cccc(-c2cccnc2)c1"
measurement = "56 µM"

[[record]]
line_notation = "COc1cc(CC(=O)NCCCCCCNC(=O)c2cccc(-c3cccnc3)c2)cc(OC)c1OC"
measurement = "139 µM"

[[record]]
line_notation = "O=C(NCCCCCCNC(=O)c1cccc(-c2cccnc2)c1)c1cccc(-c2cccnc2)c1"
measurement = "118 µM"


====

Target: NAD-dependent protein deacetylase sirtuin-1 (Homo sapiens)
Test: Inhibition of human recombinant SIRT1 assessed as inhibition of substrate deacetylation using Gln-Pro-Lys-Lys- (epsilon acetyl) AMC peptide as substrate in presence of NAD+ measured by fluorescence based analysis
Listed here are compounds together with their documented IC50.
QUANTITY_MEASURED: IC50 (µM)

[[record]]
compound = "O=C1CC(C(=O)NCCCCCCNCC(=O)C2CC3CCC2C3)c2ccccc21 (stereo not given)"
subject_of_test = "NAD-dependent protein deacetylase sirtuin-1 (Homo sapiens)"
quantity_measured = "IC50"
measurement = 78

[[record]]
compound = "O=C1CC(C(=O)NCCCNCC(=O)C2CC3CCC2C3)c2ccccc21 (stereo not given)"
subject_of_test = "NAD-dependent protein deacetylase sirtuin-1 (Homo sapiens)"
quantity_measured = "IC50"
measurement = 330

[[record]]
compound = "O=C1CC(C(=O)NCc2ccc(CNCC(=O)C3CC4CCC3C4)cc2)c2ccccc21 (stereo not given)"
subject_of_test = "NAD-dependent protein deacetylase sirtuin-1 (Homo sapiens)"
quantity_measured = "IC50"
measurement = 195

[[record]]
compound = "O=C1CC(C(=O)NCCOCCOCCNCC(=O)C2CC3CCC2C3)c2ccccc21 (stereo not given)"
subject_of_test = "NAD-dependent protein deacetylase sirtuin-1 (Homo sapiens)"
quantity_measured = "IC50"
measurement = 298

[[record]]
compound = "O=C1CC(C(=O)NCCOCCOCCOCCNCC(=O)C2CC3CCC2C3)c2ccccc21 (stereo not given)"
subject_of_test = "NAD-dependent protein deacetylase sirtuin-1 (Homo sapiens)"
quantity_measured = "IC50"
measurement = 1050


====

Biological target: NAD-dependent protein deacetylase sirtuin-2 (Homo sapiens, UniProt Q8IXJ6)
Sequence (Q8IXJ6 whole entry): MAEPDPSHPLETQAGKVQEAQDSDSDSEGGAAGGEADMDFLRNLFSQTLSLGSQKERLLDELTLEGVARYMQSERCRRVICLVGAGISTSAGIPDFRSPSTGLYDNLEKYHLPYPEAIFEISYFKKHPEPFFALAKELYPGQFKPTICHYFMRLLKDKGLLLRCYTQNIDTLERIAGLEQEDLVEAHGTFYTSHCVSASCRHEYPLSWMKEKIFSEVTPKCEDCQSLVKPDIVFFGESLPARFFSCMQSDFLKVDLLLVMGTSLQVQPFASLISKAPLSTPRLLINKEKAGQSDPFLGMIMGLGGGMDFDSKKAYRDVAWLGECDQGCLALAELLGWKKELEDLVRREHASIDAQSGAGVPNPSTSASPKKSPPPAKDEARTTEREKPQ
Assay: Inhibition of human recombinant SIRT2 assessed as inhibition of substrate deacetylation using Gln-Pro-Lys-Lys- (epsilon acetyl) AMC peptide as substrate in presence of NAD+ measured by fluorescence based analysis
pIC50: −log10 of the molar value.
QUANTITY_MEASURED: pIC50

[[record]]
molecule = "CC1COc2c(N3CCN(C)CC3)c(F)cc3c(=O)c(C(=O)NCCOCCOCCOCCNC(=O)c4cn5c6c(c(N7CCN(C)CC7)c(F)cc6c4=O)OCC5C)cn1c23 (stereo not drawn)"
quantity_measured = "pIC50"
measurement = 3.50

[[record]]
molecule = "COc1cc(CC(=O)NCCCNC(=O)c2cccc(-c3cccnc3)c2)cc(OC)c1OC"
quantity_measured = "pIC50"
measurement = 3.52

[[record]]
molecule = "COc1cc(CC(=O)NCc2ccc(CNC(=O)c3cn4c5c(c(N6CCN(C)CC6)c(F)cc5c3=O)OCC4C)cc2)cc(OC)c1OC (stereo not drawn)"
quantity_measured = "pIC50"
measurement = 3.01

[[record]]
molecule = "COc1cc(CC(=O)NCc2ccc(CNC(=O)c3cccc(-c4cccnc4)c3)cc2)cc(OC)c1OC"
quantity_measured = "pIC50"
measurement = 4.60

[[record]]
molecule = "CC1COc2c(N3CCN(C)CC3)c(F)cc3c(=O)c(C(=O)NCCCNC(=O)CCc4nc(-c5ccncc5)no4)cn1c23 (stereo not drawn)"
quantity_measured = "pIC50"
measurement = 4.28

[[record]]
molecule = "COc1cc(CC(=O)NCCOCCOCCOCCNC(=O)c2cn3c4c(c(N5CCN(C)CC5)c(F)cc4c2=O)OCC3C)cc(OC)c1OC (stereo not drawn)"
quantity_measured = "pIC50"
measurement = 5.15

[[record]]
molecule = "O=C(NCCOCCOCCNC(=O)c1cccc(-c2cccnc2)c1)c1cccc(-c2cccnc2)c1"
quantity_measured = "pIC50"
measurement = 4.00

[[record]]
molecule = "COc1cc(CC(=O)NCCOCCOCCNC(=O)c2cn3c4c(c(N5CCN(C)CC5)c(F)cc4c2=O)OCC3C)cc(OC)c1OC (stereo not drawn)"
quantity_measured = "pIC50"
measurement = 4.49

